test system: L-6; assay: In vitro anticancer activity, MTT assay; assay type: cell-based; settings: skeletal cancer cell line; MTT, 48 h continuous drug exposure
Measurement Type: pIC50
Give bare numbers, as −log10 of the molar value.

Example compounds with recorded pIC50:
[ask] Give me measured pIC50, please, for this compound: `COc1cc2cc3c(cc2cc1OCCN1CCN(Cc2ccc4c(c2)OCO4)CC1)N=C[C@@H]1CCCN1C3=O`
[reply] 6.11

[ask] Give me measured pIC50, please, for this compound: COc1cc2cc3c(cc2cc1OCCN1CCN(c2ccccc2)CC1)C(=O)N1CCC[C@H]1C=N3 [19a]
[reply] 6.59

[ask] Give me measured pIC50, please, for this compound: `COc1cc2cc3c(cc2cc1OCCN1CCN(C(C)=O)CC1)N=C[C@@H]1CCCN1C3=O`
[reply] 5.58

[ask] Give me measured pIC50, please, for this compound: COc1cc2cc3c(cc2cc1OCCN1CCN(c2ccccn2)CC1)N=C[C@@H]1CCCN1C3=O [12a]
[reply] 6.07

[ask] Give me measured pIC50, please, for this compound: COc1cc2cc3c(cc2cc1OCCN1CCN(c2ccccn2)CC1)C(=O)N1CCC[C@H]1C=N3 [23a]
[reply] 6.13

[ask] Give me measured pIC50, please, for this compound: COc1cc2cc3c(cc2cc1OCCN1CCN(c2ncccn2)CC1)N=C[C@@H]1CCCN1C3=O [13a]
[reply] 6.21

[ask] Give me measured pIC50, please, for this compound: COc1cc2cc3c(cc2cc1OCCN1CCN(c2ncccn2)CC1)C(=O)N1CCC[C@H]1C=N3 [24a]
[reply] 5.66

[ask] Give me measured pIC50, please, for this compound: COc1cc2c(cc1O)N=CC1CCCN1C2=O (centres unmarked) [DC-81, reference compound]
[reply] 4.56

[ask] Give me measured pIC50, please, for this compound: `COc1cc2cc3c(cc2cc1OCCN1CCN(c2ccccc2)CC1)N=C[C@@H]1CCCN1C3=O`
[reply] 6.00

[ask] Give me measured pIC50, please, for this compound: COc1cc2cc3c(cc2cc1OCCN1CCN(c2ccc(F)cc2)CC1)C(=O)N1CCC[C@H]1C=N3 [20a]
[reply] 5.20

Continuing:
[ask] Give me measured pIC50, please, for this compound: CCN1CCN(CCOc2cc3cc4c(cc3cc2OC)N=C[C@@H]2CCCN2C4=O)CC1 [15a]
[reply] 5.73

Values were extracted from patent US8759339B2.
